Tested on: GM3 expression on the cell surface, B16 mouse melanoma cells
Assay: cell based phenotypic assay, cell surface GM3 by antibody mediated immunofluorescence, B16 (GM3 B16 IC50)
Details: Mus musculus, B16 mouse melanoma cells; 50% inhibition of GM3 expression on the cell surface; read-out: GM3 B16 IC50
Method: The cell based assay was performed in two different cell types, B16 and C32. Cell viability was also assessed in the second, cell-based assay. The “Compound Number” in the table corresponds to the compound disclosed in the Example of the same number. […] The results of the cell based assays (performed in two different cell systems, i.e. B16 mouse melanoma or C32 human melanoma cells) are expressed as “GM3 B16 IC50” or “GM3 C32 IC50” for the B16 assay and the C32 assay, respectively. […]
Lab note: class by IC50, see low range: < 80 nM; mid range: ≥ 80 nM and < 300 nM; high range: ≥ 300 nM

COMPOUND: COCCCOc1cnc(-c2cccc(C(C)(C)NC(=O)OC3CCN4CCC3CC4)c2)nc1 (stereo not shown) [Example 324]
CLASS NAME: mid range
//
COMPOUND: COCCOc1cc(-c2ccc(F)cc2)nc(N2CCC(C(=O)NC3(C)CCN4CCC3CC4)CC2)n1 (stereo not shown) [Example 105]
CLASS NAME: mid range
//
COMPOUND: CCC1(NC(=O)NC(C)(C)c2ccc(-c3ccc(N4CCOCC4)cc3)cc2)CN2CCC1CC2 (stereo not shown) [Example 234]
CLASS NAME: low range
//
COMPOUND: COCCCc1ccc(-c2ccc(C3(NC(=O)OC4CCN5CCC4CC5)CC3)cc2)cc1 (stereo not shown) [Example 212]
CLASS NAME: low range
//
COMPOUND: COCc1ccc(-c2ccnc(N3CCC(C(=O)NC4(C)CN5CCC4CC5)CC3)n2)cc1 (stereo not shown) [Example 73]
CLASS NAME: low range
//
COMPOUND: CC(C)(NC(=O)NC1(C)CN2CCC1CC2)c1ccc(-c2ccc(OCCn3ccnn3)cc2)cc1 (stereo not shown) [Example 183]
CLASS NAME: high range
//
COMPOUND: O=C(NC1CCN2CCC1CC2)N1CCN(c2ccc(-c3ccccc3)cc2)CC1 (stereo not shown) [Example 3]
CLASS NAME: high range
//
COMPOUND: CC(C)(NC(=O)OC1CCN2CCC1CC2)c1ccc(-c2ccc(C(=O)N3CC(F)(F)C3)cc2)cc1 (stereo not shown) [Example 274]
CLASS NAME: low range
//
COMPOUND: CCC1(NC(=O)NC(C)(C)c2ccc(C(=O)N3CCN(c4ccccc4)CC3)cc2)CN2CCC1CC2 (stereo not shown) [Example 306]
CLASS NAME: mid range
//
COMPOUND: CNC(=O)c1ccc(Oc2ccc(C(C)(C)NC(=O)OC3CCN4CCC3CC4)cc2)cc1 (stereo not shown) [Example 292]
CLASS NAME: high range
//
COMPOUND: CC1(NC(=O)C2CCN(c3ccnc(-c4ccc(F)cc4)n3)CC2)CCN2CCC1CC2 (stereo not shown) [Example 51]
CLASS NAME: high range
//
COMPOUND: CC(C)(NC(=O)N1CCN2CCC1CC2)c1ccc(-c2ccc(OCCC3COC3)cc2)cc1 [Example 196]
CLASS NAME: mid range
//
COMPOUND: COCCOCc1ccc(-c2ccc(C3(NC(=O)NC4(C)CN5CCC4CC5)CC3)cc2)cc1 (stereo not shown) [Example 205]
CLASS NAME: mid range
//
COMPOUND: COCCCOc1ccc(-c2ccnc(N3CCC(C(=O)NC4(C)CCN5CCC4CC5)CC3)n2)cc1 (stereo not shown) [Example 67]
CLASS NAME: low range
//
COMPOUND: CC(C)(NC(=O)NC1(C)CCN2CCC1CC2)c1cccc(Oc2cccc(C(=O)N3CCOCC3)c2)c1 (stereo not shown) [Example 276]
CLASS NAME: high range

###

Entries annotated with measured IC50
System: GM3 expression on the cell surface, B16 mouse melanoma cells
Experiment: cell based phenotypic assay, cell surface GM3 by antibody mediated immunofluorescence, B16 (GM3 B16 IC50)
Conditions: Mus musculus, B16 mouse melanoma cells; 50% inhibition of GM3 expression on the cell surface; read-out: GM3 B16 IC50
Protocol: The cell based assay was performed in two different cell types, B16 and C32. Cell viability was also assessed in the second, cell-based assay. The “Compound Number” in the table corresponds to the compound disclosed in the Example of the same number. […] The results of the cell based assays (performed in two different cell systems, i.e. B16 mouse melanoma or C32 human melanoma cells) are expressed as “GM3 B16 IC50” or “GM3 C32 IC50” for the B16 assay and the C32 assay, respectively. […]

COMPOUND: COCCOc1cccc(-c2ccc(C(C)(C)NC(=O)N3CCN4CCC3CC4)cc2)c1
MEASURED TARGET: GM3 expression on the cell surface, B16 mouse melanoma cells
IC50 / nM: 283

COMPOUND: CN(C)C(=O)c1cccc(Oc2cccc(C(C)(C)NC(=O)NC3(C)CN4CCC3CC4)c2)c1 (stereo not shown)
MEASURED TARGET: GM3 expression on the cell surface, B16 mouse melanoma cells
IC50 / nM: 1410

COMPOUND: CC1(NC(=O)N2CCN(c3cccc(-c4ccccc4)c3)CC2)CCN2CCC1CC2 (stereo not shown)
MEASURED TARGET: GM3 expression on the cell surface, B16 mouse melanoma cells
IC50 / nM: 181

COMPOUND: CC(C)c1cccc(N2CCN(C(=O)NC3(C)CCN4CCC3CC4)CC2)c1 (stereo not shown)
MEASURED TARGET: GM3 expression on the cell surface, B16 mouse melanoma cells
IC50 / nM: 1440

###

Test system: GM3 expression on the cell surface, B16 mouse melanoma cells
Assay: cell based phenotypic assay, cell surface GM3 by antibody mediated immunofluorescence, B16 (GM3 B16 IC50)
Conditions: Mus musculus, B16 mouse melanoma cells; 50% inhibition of GM3 expression on the cell surface; read-out: GM3 B16 IC50
pIC50: −log10 of the molar value.
Response key: YES means pIC50 >= 7; NO means pIC50 < 7.

COMPOUND: COCCCOc1ccc(-c2nc(C(C)(C)NC(=O)N3CCN4CCC3CC4)cs2)cc1
CLASS NAME: NO

COMPOUND: CC1(NC(=O)C2CCN(c3ncc(F)c(-c4ccc(F)cc4)n3)CC2)CCN2CCC1CC2 (centres unmarked)
CLASS NAME: YES

COMPOUND: CC1(NC(=O)N2CCN(c3cccc(C4CCCCC4)c3)CC2)CCN2CCC1CC2 (centres unmarked)
CLASS NAME: NO

COMPOUND: CC(C)(NC(=O)NC1(C)CCN2CCC1CC2)c1ccc(Oc2ccc(C(=O)N3CCC(F)(F)CC3)cc2)cc1 (centres unmarked)
CLASS NAME: YES

COMPOUND: CC(C)(NC(=O)OC1CCN2CCC1CC2)c1ccc(Oc2ccc(C(=O)N3CCOCC3)cc2)cc1 (centres unmarked)
CLASS NAME: NO

###

# IC50 per record follows
Molecular target: glucosylceramide synthase (Homo sapiens)
Construct: Microsomes were isolated from A375 human melanoma cells; endogenous in cells; host or cells: A375 human melanoma cells (microsomal fraction, 100,000 g pellet)
Sequence (Q16739 whole entry): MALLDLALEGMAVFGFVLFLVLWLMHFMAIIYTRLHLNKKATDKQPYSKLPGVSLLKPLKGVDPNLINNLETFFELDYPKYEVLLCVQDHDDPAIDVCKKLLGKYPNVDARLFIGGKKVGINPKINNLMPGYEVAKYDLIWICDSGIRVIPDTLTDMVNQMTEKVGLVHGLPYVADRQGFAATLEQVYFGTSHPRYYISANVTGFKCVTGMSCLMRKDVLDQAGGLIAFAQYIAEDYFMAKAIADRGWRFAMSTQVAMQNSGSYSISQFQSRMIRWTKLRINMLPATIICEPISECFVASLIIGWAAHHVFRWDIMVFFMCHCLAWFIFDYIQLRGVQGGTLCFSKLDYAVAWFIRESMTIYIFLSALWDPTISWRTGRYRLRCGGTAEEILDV
Test: microsomal assay measuring conversion of ceramide to glucosylceramide by HPLC (GCS IC50)
Assay type: biochemical
Settings: concentration causing 50% inhibition of glucosylceramide synthase activity

COMPOUND: COCCOc1cccc(-c2ccc(C(C)(C)NC(=O)OC3CCN4CCC3CC4)cc2)c1 (stereo not shown) [Example 168]
IC50: 5.56 nM
//
COMPOUND: COCCOc1ccc(-c2ccnc(N3CCC(F)(C(=O)NC4(C)CN5CCC4CC5)CC3)n2)cc1 (stereo not shown) [Example 85]
IC50: 10.5 nM
//
COMPOUND: CCC1(NC(=O)NC2(c3ccc(-c4ccc(OCCOC)cc4)cc3)CC2)CN2CCC1CC2 (stereo not shown) [Example 164]
IC50: 6.16 nM
//
COMPOUND: COCCOCc1ccc(-c2ccc(C(C)(C)NC(=O)OC3CCN4CCC3CC4)cc2)cc1 (stereo not shown) [Example 200]
IC50: 24 nM

###

System: GM3 expression on the cell surface, B16 mouse melanoma cells
Assay: cell based phenotypic assay, cell surface GM3 by antibody mediated immunofluorescence, B16 (GM3 B16 IC50)
Details: Mus musculus, B16 mouse melanoma cells; 50% inhibition of GM3 expression on the cell surface; read-out: GM3 B16 IC50
Classification by IC50 | ranges: bucket A: < 50 nM; bucket B: ≥ 50 nM and < 100 nM; bucket C: ≥ 100 nM

COMPOUND: CC1(NC(=O)C2CCN(c3cccc(-c4ncccn4)c3)CC2)CCN2CCC1CC2 (centres unmarked)
CLASS NAME: bucket C
--
COMPOUND: CC(C)(NC(=O)N1CCN2CCC1CC2)c1ccc(-c2ccc(C(=O)N3CCOCC3)cc2)cc1
CLASS NAME: bucket C
--
COMPOUND: COCCOCc1ccc(-c2ccnc(N3CCC(F)(C(=O)N[C@]4(C)CN5CCC4CC5)CC3)n2)cc1
CLASS NAME: bucket B
--
COMPOUND: COCCOc1ccc(-c2ccc(C(C)(C)NC(=O)N[C@]3(C)CN4CCC3CC4)cc2)cc1
CLASS NAME: bucket A
--
COMPOUND: COCCOc1ccc(-c2cccc(C(C)(C)NC(=O)OC3CCN4CCC3CC4)c2)cc1 (centres unmarked)
CLASS NAME: bucket A
--
COMPOUND: COCCCOc1cnc(-c2cccc(C(C)(C)NC(=O)OC3CCN4CCC3CC4)c2)cn1 (centres unmarked)
CLASS NAME: bucket C
--
COMPOUND: O=C(OC1CCN2CCC1CC2)N1CCN(c2cccc(-c3ccc(F)cc3)c2)CC1 (centres unmarked)
CLASS NAME: bucket C
--
COMPOUND: COCc1ccc(-c2ccnc(N3CCC(C)(C(=O)NC4(C)CCN5CCC4CC5)CC3)n2)cc1 (centres unmarked)
CLASS NAME: bucket C
--
COMPOUND: CCCC1(NC(=O)NC2(c3ccc(-c4ccc(COCc5cccnc5)cc4)cc3)CC2)CN2CCC1CC2 (centres unmarked)
CLASS NAME: bucket B
--
COMPOUND: COCCOc1ccc(-c2ccc(C3(NC(=O)NC4CN5CCC4CC5)CC3)cc2)cc1 (centres unmarked)
CLASS NAME: bucket B
--
COMPOUND: CCCC1(NC(=O)NC(C)(C)c2ccc(-c3ccc(CCO)cc3)cc2)CN2CCC1CC2 (centres unmarked)
CLASS NAME: bucket B
--
COMPOUND: CC(C)(NC(=O)NC1(C)CN2CCC1CC2)c1ccc(-c2ccc(S(=O)(=O)CC3CC3)cc2)cc1 (centres unmarked)
CLASS NAME: bucket B
--
COMPOUND: COC1(C(=O)NC2(C)CCN3CCC2CC3)CCN(c2ncc(F)c(-c3ccc(OCCF)cc3)n2)CC1 (centres unmarked)
CLASS NAME: bucket B
--
COMPOUND: COCCCOc1ccc(-c2ccnc(N3CCC(F)(C(=O)NC4(C)CCN5CCC4CC5)CC3)n2)cc1 (centres unmarked)
CLASS NAME: bucket A
--
COMPOUND: CC1(NC(=O)C2(F)CCN(c3nccc(-c4ccc(OCCF)cc4)n3)CC2)CCN2CCC1CC2 (centres unmarked)
CLASS NAME: bucket A
--
COMPOUND: CC1(NC(=O)C2(F)CCN(c3nccc(-c4ccc(OCCF)cc4)n3)CC2)CN2CCC1CC2 (centres unmarked)
CLASS NAME: bucket A
--
COMPOUND: O=C(OC1CC2CCN(CC2)C1)N1CCN(c2cccc(-c3ccccc3)c2)CC1 (centres unmarked)
CLASS NAME: bucket C
--
COMPOUND: O=C(N1CCN(c2ccccc2)CC1)N1CCN2CCC1CC2
CLASS NAME: bucket C
--
COMPOUND: CC1(NC(=O)C2CCN(c3nccc(-c4ccc(F)c(F)c4)n3)CC2)CCN2CCC1CC2 (centres unmarked)
CLASS NAME: bucket A
--
COMPOUND: COCCOc1ccc(-c2ccc(C3(NC(=O)NC4(C)CN5CCC4CC5)CC3)cc2)cc1 (centres unmarked)
CLASS NAME: bucket A
--
COMPOUND: O=C(NC1CN2CCC1CC2)C1CCN(c2nccc(-c3ccc(F)cc3)n2)CC1 (centres unmarked)
CLASS NAME: bucket C
--
COMPOUND: CCC1(NC(=O)NC2(c3ccc(-c4ccc(COCc5cncnc5)cc4)cc3)CC2)CN2CCC1CC2 (centres unmarked)
CLASS NAME: bucket C
--
COMPOUND: CNC(=O)c1ccc(Oc2ccc(C(C)(C)NC(=O)NC3(C)CN4CCC3CC4)cc2)cc1 (centres unmarked)
CLASS NAME: bucket C
--
COMPOUND: CCC1(NC(=O)N2CCN(c3cccc(-c4ccc(F)cc4)c3)CC2)CN2CCC1CC2 (centres unmarked)
CLASS NAME: bucket C
--
COMPOUND: CC1(NC(=O)C2(F)CCN(c3nccc(Oc4ccc(C#N)cc4)n3)CC2)CCN2CCC1CC2 (centres unmarked)
CLASS NAME: bucket A
--
COMPOUND: CC(C)(NC(=O)OC1CCN2CCC1CC2)c1ccc(-c2ccc(S(=O)(=O)CC3CC3)cc2)cc1 (centres unmarked)
CLASS NAME: bucket A
--
COMPOUND: COCCOc1ccc(-c2ccc(C(C)(C)NC(=O)N[C@@]3(C)CN4CCC3CC4)cc2)cc1
CLASS NAME: bucket C
--
COMPOUND: CC(C)(NC(=O)NC1(C)CCN2CCC1CC2)c1ccc(-c2ccc(N3CCOCC3)cc2)cc1 (centres unmarked)
CLASS NAME: bucket A
--
COMPOUND: CN(C(=O)C1CCN(c2nccc(-c3ccc(F)cc3)n2)CC1)C1CN2CCC1CC2 (centres unmarked)
CLASS NAME: bucket C
--
COMPOUND: CC(C)(NC(=O)OC1CCN2CCC1CC2)c1ccc(-c2ccc(OCCCn3ccnn3)cc2)cc1 (centres unmarked)
CLASS NAME: bucket C
--
COMPOUND: CC(C)(NC(=O)OC1CCN2CCC1CC2)c1ccc(-c2ccc(C(=O)N3CCOCC3)cc2)cc1 (centres unmarked)
CLASS NAME: bucket C

// data source = patent US12060349B2
